Hey, just so you know, these numbers are from PubChem BioAssay AID1159580.

Assay Protocol: chemical genetic growth profiling, strain panel (AID 1159580);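 further: tested at 20 µM; growth read once vehicle control cultures reached saturation at 30 °C; 1 = growth at the plate median or of vehicle wells; lower values mean less growth of the strain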
Condition Info: S. cerevisiae deletion strains, growth OD, locus YNL183C, strain NPR1, stronger effect = lower value
Among all 5,500 compounds or so, about 2,000 (36%) were called active. Inconclusive results (about 18%) are left out. Some of the results follow.
Recorded normalized growth by entry
Respond numerically, and do not add a unit to the figure.

Worked set:
[
  {
    "Structure Notation": "COc1cc([C@H]2Oc3cc([C@H]4Oc5cc(O)cc(O)c5C(=O)[C@@H]4O)ccc3O[C@@H]2CO)ccc1O",
    "normalized growth": 0.932
  },
  {
    "Structure Notation": "COc1cc(CC/C(C)=N\\O)ccc1OCc1ccc(Cl)c(Cl)c1",
    "normalized growth": 0.885
  },
  {
    "Structure Notation": "O=c1cc(-c2ccccc2)oc2cccc(O)c12",
    "normalized growth": 0.943
  }
]

Then there is this molecule:
INPUT: I am curious: what normalized growth value has been reported for COc1cc(CC/C(C)=N/O)ccc1OCc1ccc(Cl)cc1Cl ?
OUTPUT: 0.978
